// provenance: patent US20240287076A1

- subject of test: BTK (Homo sapiens, UniProt Q06187)
- Construct: The GM01501.3 cell line endogenously expresses BTK with a HiBiT fusion tag via CRISPR knock-in at its C-terminal region; endogenous in cells; host or cells: GM01501.3 (GM01501 cells engineered by CRISPR knock-in of HiBiT at the BTK locus)
- Sequence (Q06187 whole entry, the tested form may be a part): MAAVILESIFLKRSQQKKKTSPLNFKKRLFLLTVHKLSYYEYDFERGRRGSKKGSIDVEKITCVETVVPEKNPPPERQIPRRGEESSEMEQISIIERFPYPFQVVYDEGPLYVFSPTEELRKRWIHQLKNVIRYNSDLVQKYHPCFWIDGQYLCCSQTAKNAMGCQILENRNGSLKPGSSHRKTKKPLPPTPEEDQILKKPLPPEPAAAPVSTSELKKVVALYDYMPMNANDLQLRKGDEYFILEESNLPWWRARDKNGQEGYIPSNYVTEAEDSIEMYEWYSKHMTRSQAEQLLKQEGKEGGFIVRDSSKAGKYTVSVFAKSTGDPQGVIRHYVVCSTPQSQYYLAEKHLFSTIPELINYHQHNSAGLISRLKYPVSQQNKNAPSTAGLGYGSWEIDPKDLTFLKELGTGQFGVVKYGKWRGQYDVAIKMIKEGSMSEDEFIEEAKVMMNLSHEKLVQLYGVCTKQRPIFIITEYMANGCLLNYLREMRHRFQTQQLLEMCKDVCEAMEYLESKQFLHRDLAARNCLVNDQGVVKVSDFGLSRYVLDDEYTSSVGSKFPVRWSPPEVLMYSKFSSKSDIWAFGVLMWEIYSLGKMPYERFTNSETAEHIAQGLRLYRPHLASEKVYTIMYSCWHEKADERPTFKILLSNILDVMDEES
- test protocol: BTK degradation assay using the HiBiT Method (Nano-Glo HiBiT Lytic Assay, GM01501.3 cells)
- Type: cell-based
- condition set: HiBiT Degradation on GM01501.3 BTK @ 6 hours
value type: DC50

Cc1cc(-c2ncnn3cc(-c4ccc(CN5CCC(c6ccc(NC7CCC(=O)NC7=O)nc6)CC5)cc4)cc23)ccc1CNC(=O)c1noc(C(C)(C)C)n1 (stereo not drawn) [Example 13] ... < 100 nM
Cc1cc(-c2ncnn3cc(OCCCN4CCC(c5ccc6c(N7CCC(=O)NC7=O)nn(C)c6c5)CC4)cc23)ccc1CNC(=O)N1CC(OC(C)(C)C)C1 [Example 293] ... < 100 nM

Please examine the following record next.
System BTK (Homo sapiens, UniProt Q06187). Read-out DC50. Item Cc1cc(-c2ncnn3cc(-c4nccc(CN5CCC(c6ccc(C7CCC(=O)NC7=O)cc6)CC5)n4)cc23)ccc1CNC(=O)c1noc(C(C)(C)C)n1 (stereo not drawn) [Example 215] . Report value.
< 100 nM

----------
- subject of test: BTK (Homo sapiens)
- Construct: The GM01501.3 cell line endogenously expresses BTK with a HiBiT fusion tag via CRISPR knock-in at its C-terminal region; endogenous in cells; host or cells: GM01501.3 (GM01501 cells engineered by CRISPR knock-in of HiBiT at the BTK locus)
- test protocol: BTK degradation assay using the HiBiT Method (Nano-Glo HiBiT Lytic Assay, GM01501.3 cells)
- Format: cell-based
- condition set: HiBiT Degradation on GM01501.3 BTK @ 6 hours
This section presents molecules with their documented DC50 values.

Cc1cc(-c2ncnn3cc(N4CCN(CCCCc5ccc6c(N7CCC(=O)NC7=O)nn(C)c6c5)CC4)cc23)ccc1CNC(=O)c1noc(C(C)(C)C)n1 ... < 100 nM

Note down DC50 recorded for Cc1cc(-c2ccnc3nn(-c4ccc(CN5CCC(c6ccc(NC7CCC(=O)NC7=O)cc6)CC5)cc4)cc23)ccc1CNC(=O)c1noc(C(C)(C)C)n1 (stereo not shown)
100 to 500 nM

Answer with the recorded DC50 for the molecule listed here: Cc1cc(-c2ncnn3cc(-c4ccc(CN5CCC(c6ncc(NC7CCC(=O)NC7=O)cn6)CC5)cc4)cc23)ccc1CNC(=O)c1noc(C(C)(C)C)n1 (stereo not shown)
< 100 nM

----------
Form field: DC50 (one value per entry).
- subject of test: BTK (Homo sapiens, UniProt Q06187)
- Construct: The GM01501.3 cell line endogenously expresses BTK with a HiBiT fusion tag via CRISPR knock-in at its C-terminal region; endogenous in cells; host or cells: GM01501.3 (GM01501 cells engineered by CRISPR knock-in of HiBiT at the BTK locus)
- test protocol: BTK degradation assay using the HiBiT Method (Nano-Glo HiBiT Lytic Assay, GM01501.3 cells)
- Type: cell-based
- condition set: HiBiT Degradation on GM01501.3 BTK @ 6 hours

Cc1cc(-c2ncnn3cc(-c4ccc5c(c4)CCN(CCCc4ccc(NC6CCC(=O)NC6=O)cc4)C5)cc23)ccc1CNC(=O)c1noc(C(C)(C)C)n1 (stereo not shown) ... < 100 nM

Write DC50 of Cc1cc(-c2ncnn3cc(-c4ccc(CN5CCC(c6ccc(NC7CCC(=O)NC7=O)cc6)CC5(C)C)cc4)cc23)ccc1CNC(=O)c1noc(C(C)(C)C)n1 (stereo not shown) ; system used: BTK (Homo sapiens, UniProt Q06187)
< 100 nM

Please tell me the measured DC50 for Cc1cc(-c2ncnn3cc(CCCCN4CCC(c5ccc(N6CCC(=O)NC6=O)cc5)CC4)cc23)ccc1CNC(=O)c1noc(C(C)(C)C)n1 ; system: BTK (Homo sapiens, UniProt Q06187).
< 100 nM
